tested on: SN12C; assay: NCI tumour cell line growth inhibition, 48 h
The source made the active and inactive calls. Rule as the data show it: active = GI50 up to about 1.1 µM and inactive = higher.
Would you mind answering with one of these outcomes? active, inactive

# lookup: test call for CC(C)COC(=O)N1N=NC2C3CC(=O)C(O3)C21 (configuration not stated)
inactive

Identify the outcome logged in this assay for the compound shown: CCOC(=O)c1cc2cc(C)cc(C(=O)c3ccc([N+](=O)[O-])cc3)c2[nH]1
inactive

Fill in: this test's call for COc1cccc(-c2ccc3c4c2O[C@H]2C(=O)CC[C@@]5(O)[C@@H](C3)N(CC3CC3)CC[C@]425)c1 is ___
inactive

Recorded test outcome, item CC1(c2ccc(F)cc2)C(C#N)C(=O)NC(=O)C1C#N (configuration not stated)
inactive

I'd appreciate the recorded outcome for O=c1oc2ccc([N+](=O)[O-])cc2cc1-c1csc(-c2ccccc2)n1 from this test.
inactive

What was the test verdict on O=C(/C=C/c1ccc(O)c(O)c1)OCCOC(=O)/C=C/c1ccc(O)c(O)c1 ?
inactive

Outcome? Nc1nc(Cl)c(N)c(NCC2(CO)CCCC2)n1
inactive

Which outcome was assigned to C=C1C(=O)O[C@@H]2[C@H]1C[C@H](I)[C@@]1(C)CC[C@H](O1)[C@](C)(I)CCCC(C)[C@@H]2O (some centres not stated) in this test?
inactive

Hey, what did the test say about CCN(CC)C1Oc2cc3c(cc2C(c2ccc(OC)cc2)C1C)OCO3 (configuration not stated) ?
inactive

Query: recorded result category for COc1ccc(CNC2=C(NC(C)=O)C(=O)c3ccccc3C2=O)cc1 in this test
inactive

Returns: the outcome recorded for O=c1c2cc([N+](=O)[O-])ccc2nc2n1CCCCC2 in this assay.
inactive

Call for entry O=C1Oc2ccccc2C1C/C(=N\Nc1ccccc1)c1ccccc1O (configuration not stated) :
inactive

Outcome logged for Cc1ccc2c(c1-c1ccccc1)C(=O)OC2 in this assay:
inactive

Which result was noted for this compound in the test: C#CC1/C(=C\C(=O)OC)CCCC1O (configuration not stated)
inactive

Recorded call for O=C(CC1(O)C(=O)Nc2c(Cl)cc(Cl)cc21)c1ccc(Br)cc1Br (configuration not stated) ?
inactive

Which outcome did this test record for the compound O=NNc1cnc(O)nc1O ?
inactive

Called result for COc1ccc2c(c1)c(=Cc1ccc(N(C)C)cc1)c1cc(-c3ccccc3)[n+](C)n12
active

What classification did Cc1cccc(NC(=O)C(=O)C(C(=O)c2ccccc2F)C2OC(=O)c3ccccc32)c1Cl (configuration not stated) end up with in this test?
inactive

Which result was noted for this compound in the test: Cc1cn(CCCCC2=NCCCN2)c(=O)[nH]c1=O
inactive

Dear all, I need the recorded test outcome for CCOC(=O)NN(C(=O)OCC)c1c(C)cc(C)cc1C , thank you.
inactive

Assay outcome for Nc1ncn(C/C=C/c2ccccc2)c2ncnc1-2 : what was it?
inactive

Entry COc1ccc(/C=C2\CCC(C)(CN(C)C)C2=O)cc1OC (configuration not stated) : call = ?
inactive

Dear colleague, could you share the recorded outcome for Oc1cc(-c2cccc(F)c2)nc2cc3c(cc12)OCO3 when you have a moment?
active

Record lookup: outcome of this test for COc1ccc2nc3cc([N+](=O)[O-])ccc3c(Nc3ccc(S(=O)(=O)Nc4ncccn4)cc3)c2c1 ?
inactive

Assay outcome for Nc1c(-c2ccccc2[N+](=O)[O-])nc2ccccn12 : what was it?
inactive

Assay outcome for CCc1cc(Cc2cc(CC)c(NC(=O)C(=O)CC(=O)c3sc(-c4cccnc4)nc3C)c(CC)c2)cc(CC)c1NC(=O)C(=O)CC(=O)c1sc(-c2cccnc2)nc1C : what was it?
inactive

Query: recorded result category for CC(=O)Oc1cc2c(cc1OC(C)=O)C1(C)CCC2(C)c2cc(OC(C)=O)c(OC(C)=O)cc21 in this test
inactive

I would be grateful if you could indicate the recorded call for O=C1/C(=C/c2ccc(Cl)cc2)Sc2scc(-c3cccc([N+](=O)[O-])c3)[n+]21 .
inactive

Per the assay record, what outcome was assigned to CC1CCN(c2cc(-c3cc4ccccc4o3)oc(=O)c2C#N)CC1 ?
inactive

How did this test come out for CN(C)c1ccc(C=C2C(=O)OC(C)(C)OC2=O)cc1Br ?
inactive

Could you check what this test reported for COc1ccc(NC(=O)c2cc(OC)c(OC)c(OC)c2)cc1 ?
inactive

In this assay, the call recorded for O=C1Cc2ccccc2N1c1c(Cl)cccc1Cl was what?
inactive

Hi, sorry to bother you, what did the test record for c1ccc(C2=C(c3ccccc3)Sc3nnc(CCCCCCCCc4nnc5n4NC(c4ccccc4)=C(c4ccccc4)S5)n3N2)cc1 ?
inactive

Which outcome did this test record for the compound C=CCOc1ccc(C2c3c(n[nH]c3O)CC(C)(O)C2C(=O)OC)cc1OC (configuration not stated) ?
inactive

Status in this test for C#CCOC(=O)C(N)CCCNC(=N)N (configuration not stated) ?
inactive

How was COC(=O)C1=C(C)NC(=S)NC1c1ccc(N(CCCl)CCCl)cc1Cl (configuration not stated) classified in this test?
inactive

Recorded test outcome, item CC(=O)Oc1c2oc3cc(O)c(O)cc3c2c(OC(C)=O)c2oc3cc(O)c(O)cc3c12
inactive

Which outcome was assigned to Cc1cn(C2CC(N(O)C(N)=O)C(CO)O2)c(=O)[nH]c1=O (configuration not stated) in this test?
inactive

How did this test come out for O=C1CC[C@@]2(O)[C@H]3Cc4ccc(-c5cccc(O)c5)c5c4[C@@]2(CCN3CC2CC2)[C@H]1O5 ?
inactive

Entry C/C(=N/O)c1cccc(Nc2nc3ccccc3c3[nH]c4ccccc4c23)c1 : call = ?
inactive

Check the results log: what was the call for CC1CCC[P+](Cc2ccccc2)(c2ccccc2)CC1 (configuration not stated) ?
inactive

Dear all, I need the recorded test outcome for C/C(=N/NC(=S)Nc1ccccc1Cl)c1ccccn1 , thank you.
active

###

Assign GI50 to each entry below.
tested on: NCI-H226; experiment: NCI tumour cell line growth inhibition, 48 h
Calls of active or inactive are those of the source. Rule as the data show it: active = GI50 up to about 1.1 µM and inactive = higher.

// fetch GI50 given entry Cc1ccc(S(=O)OCc2c(C)c(C)c(COS(=O)c3ccc(C)cc3)c(C)c2C)cc1 (centres undefined)
> 100 µM (inactive)

Report GI50, nothing else, for this compound: CC(=O)CC12NC(=O)N(C)N=C1N(C)C(=O)N(C)C2=O (centres undefined)
> 100 µM (inactive)

Hello, please tell me recorded GI50 for this one: N#Cc1nc(C#N)n(S(=O)(=O)c2ccccc2)c1NS(=O)(=O)c1ccccc1
> 100 µM (inactive)

Return GI50 (reported value) for this compound: CC1(C)CC[C@]2(C(=O)O)CC[C@]3(C)[C@H](C(=O)C=C4[C@@]5(C)C=C(C#N)C(=O)C(C)(C)[C@@H]5CC[C@]43C)[C@@H]2C1 [BARDOXOLONE]
0.416 µM (active)

Report GI50, nothing else, for this compound: O=C1Nc2ccccc2C(=O)/C1=C/NC(=S)NC1CCCCC1
> 100 µM (inactive)

Specify measured GI50 for Cc1ccc(NC(=O)c2cc3ccccc3c(/N=N/c3cc(S(=O)(=O)O)ccc3O)c2O)c(C)c1 .
15.4 µM (inactive)

Please list GI50 recorded for the compound O=c1n(Cc2ccccc2)c2ccccc2n1CC1CS1 (centres undefined)
> 100 µM (inactive)

Given COC(=O)C1=C(C)NC(=S)NC1c1ccc(N(CCCl)CCCl)cc1Cl (centres undefined) , respond with its GI50.
3.56 µM (inactive)

Name the recorded GI50 of the item c1ccc([B-]2(c3ccccc3)OCCc3cccc[n+]32)cc1 in your answer.
50.1 µM (inactive)

###

system: CCRF-CEM; assay: NCI tumour cell line growth inhibition, 48 h
Activity calls are given as the source filed them. Rule as the data show it: active = GI50 up to about 1.1 µM and inactive = higher.
Bench note: report the call from 1.0 (active), 0.0 (inactive)

# fetch the recorded call for CN1Cc2ccccc2S(=O)(=O)n2cccc2C1=O here
0.0

What outcome does the record of this test show for CC1(C)CCSC(/C=C/c2ccccc2)=N1 ?
0.0

Record lookup: outcome of this test for Cc1n[nH]c(=O)n1N=C(c1ccccc1)c1ccccc1 ?
0.0

Which outcome did this test record for the compound O=P(O)(O)c1ccccc1Oc1ccccc1 ?
0.0

Dear all, I need the recorded test outcome for CC(C)(C1=NC(C(C)(C)C)CO1)C1=N[C@@H](C(C)(C)C)CO1 (stereo not given in full) , thank you.
0.0

Would you mind telling me which call this test gave OC(c1ccccc1)(c1ccccc1)c1cccnc1 ?
0.0

What was the test verdict on c1ccc(C2=C(c3ccccc3)Sc3nnc(CCCCCCCCc4nnc5n4NC(c4ccccc4)=C(c4ccccc4)S5)n3N2)cc1 ?
0.0

Any idea what this test logged for COc1ccc(C#CCC(OC2OC(CO)C(O)C(O)C2O)C(O)c2ccc(OC)c(OC)c2)cc1OC (stereo not given) ?
0.0

Per the records of this test, what outcome belongs to COc1cccc(-c2ccc3c4c2O[C@H]2C(=O)CC[C@@]5(O)[C@@H](C3)N(CC3CC3)CC[C@]425)c1 ?
0.0

Short answer needed: outcome of this test for COc1cc2c(cc1OC)C1=C(C=O)c3ccc(OC)c(OC)c3C(O)N1CC2 (stereo not given) ?
0.0

So what was the verdict on Cc1nc2ccccc2c(=O)n1NC(=S)Nc1ccc(Cl)cc1[N+](=O)[O-] in this test?
0.0

Which result was noted for this compound in the test: CCN(CC)/[N+]([O-])=N/OCC(C)O (stereo not given)
0.0

Please let me know the test result on file for CC(C)(C)OC(=O)N1CCC(NC(=O)NC2CCN(C(=O)OC(C)(C)C)CC2)CC1 .
0.0

Could you kindly confirm the outcome this assay logged for COc1ccc(/C=C/c2cc(OC)c(OC)c(OC)c2)cc1 ?
0.0

Which result was noted for this compound in the test: CCOP(=O)(OCC)C(c1ccccc1)N(C(=O)NC(F)(F)F)c1cccc(F)c1 (stereo not given)
0.0

Would you mind telling me which call this test gave C/C=C/[C@H]1O[C@@](OC)([C@@H](C)[C@H](O)[C@H](C)[C@H]2OC(=O)/C(OC)=C/C(C)=C/[C@@H](C)[C@@H](O)[C@@H](C)[C@@H](O)[C@H](C)C/C(C)=C/C=C/[C@@H]2OC)CC(OC2CC(O)C(OC(N)=O)C(C)O2)[C@@H]1C (stereo not given in full) ?
1.0

I'd appreciate the recorded outcome for O=C(CC(O)(C(F)(F)F)C(F)(F)F)C(c1ccccc1)C(O)(C(F)(F)F)C(F)(F)F (stereo not given) from this test.
0.0

Hi team, can someone confirm the assay call for CC(=O)Oc1cc2c(cc1OC(C)=O)C1(C)CCC2(C)c2cc(OC(C)=O)c(OC(C)=O)cc21 ?
0.0

Look up the recorded call for N#CCN1CCOCCOCCN(CC#N)CCOCCOCC1 in this test.
0.0

What classification did NNC(=O)c1ccccc1Nc1nc(-c2cccs2)nc2ccc(Br)cc12 end up with in this test?
0.0
